# Assay System: ER-α in MCF-7 cells (Homo sapiens, UniProt P03372)
# Sequence (P03372 whole entry): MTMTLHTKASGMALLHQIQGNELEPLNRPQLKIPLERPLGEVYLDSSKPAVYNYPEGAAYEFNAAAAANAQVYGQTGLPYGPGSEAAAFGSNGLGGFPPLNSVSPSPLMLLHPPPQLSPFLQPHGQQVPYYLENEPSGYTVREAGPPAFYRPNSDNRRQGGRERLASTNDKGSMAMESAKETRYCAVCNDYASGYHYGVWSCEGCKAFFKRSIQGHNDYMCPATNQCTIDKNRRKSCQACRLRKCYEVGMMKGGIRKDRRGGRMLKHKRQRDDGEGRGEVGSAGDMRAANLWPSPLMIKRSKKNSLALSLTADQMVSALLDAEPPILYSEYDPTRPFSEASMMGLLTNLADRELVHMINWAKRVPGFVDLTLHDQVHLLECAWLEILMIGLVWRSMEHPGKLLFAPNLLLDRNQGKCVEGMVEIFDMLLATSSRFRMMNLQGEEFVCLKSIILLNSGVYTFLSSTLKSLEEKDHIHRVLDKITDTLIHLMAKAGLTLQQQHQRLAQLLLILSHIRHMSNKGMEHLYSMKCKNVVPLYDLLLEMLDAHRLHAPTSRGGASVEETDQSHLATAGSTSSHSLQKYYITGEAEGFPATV
# Assay Protocol: Breast cancer cell ER-α in cell western assay (SP1)
# Format: cell-based
# Parameters: endogenous in cells; host or cells: MCF-7
# Assay Context: SP1 antibody, 4 or 24 hr post compound addition, read-out: ER-α In Cell Western Assay (SP1) IC50
Value Type: DC50

For orientation, consider the following solved cases.
Smi: CC/C(=C(/c1ccc(/C=C/C(=O)O)cc1)c1ccc2[nH]ncc2c1)c1cccc(Oc2cncnc2)c1
DC50: ≤ 100 nM

Smi: CC/C(=C(/c1ccc2cc(C(=O)O)ccc2c1)c1ccc2[nH]ncc2c1)c1ccccc1
DC50: ≤ 100 nM

Inquiry: Identify the reported DC50 for the following entry. CC/C(=C(/c1ccc(/C=C/C(=O)O)cc1)c1ccc2[nH]ncc2c1)c1ccc(Oc2ccccc2)cc1C
Reply text: ≤ 100 nM
